Data credit: ChEMBL document CHEMBL1268952

assay: Inhibition of CK2 at 1 uM; values are per cent of control
# Satisfied = residual activity below 90% (exclusive); Not satisfied = residual activity at/above 90%

Before answering, review these 4 worked examples.
[[record]]
input_smiles = "CCN(C)C(=O)c1ccc2c(c1)NC(=O)/C2=C(\\Nc1ccc(CN2CCCCC2)cc1)c1ccccc1"
label_class = "Not satisfied"

[[record]]
input_smiles = "CCNC(=O)c1ccc2c(c1)NC(=O)/C2=C(\\Nc1ccc(N(CCN(C)C)S(C)(=O)=O)cc1)c1ccccc1"
label_class = "Not satisfied"

[[record]]
input_smiles = "CN(C)C(=O)c1ccc2c(c1)/C(=C(/Nc1ccc(CN3CCCCC3)cc1)c1ccccc1)C(=O)N2"
label_class = "Satisfied"

[[record]]
input_smiles = "CCNC(=O)c1ccc2c(c1)NC(=O)/C2=C(\\Nc1ccc(CN(C)C)cc1)c1ccccc1"
label_class = "Not satisfied"


Now take the following compound into account.
Does the reported residual activity of CCNCc1ccc(N/C(=C2\C(=O)Nc3cc(C(=O)N(C)CC)ccc32)c2ccccc2)cc1 stay below 90%? Satisfied

---

target: Dual specificity mitogen-activated protein kinase kinase 1 (Homo sapiens) (UniProt Q02750); experiment: Inhibition of MKK1A at 1 uM; values are per cent of control
Sequence (Q02750 whole entry): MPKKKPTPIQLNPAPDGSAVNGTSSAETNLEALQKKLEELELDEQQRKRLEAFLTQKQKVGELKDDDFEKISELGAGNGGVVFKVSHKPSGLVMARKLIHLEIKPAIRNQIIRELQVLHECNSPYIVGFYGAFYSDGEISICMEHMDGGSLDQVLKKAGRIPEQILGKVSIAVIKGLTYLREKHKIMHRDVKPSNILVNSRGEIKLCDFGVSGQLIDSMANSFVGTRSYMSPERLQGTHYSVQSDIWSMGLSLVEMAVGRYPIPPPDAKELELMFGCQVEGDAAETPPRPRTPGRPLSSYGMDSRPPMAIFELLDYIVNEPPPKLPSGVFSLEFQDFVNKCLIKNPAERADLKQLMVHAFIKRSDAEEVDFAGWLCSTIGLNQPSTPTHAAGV
parameter measured: residual activity (%)
State the answer as a number, implicitly in %.

Please respond with reported residual activity (system Dual specificity mitogen-activated protein kinase kinase 1 (Homo sapiens) (UniProt Q02750)) for CCNC(=O)c1ccc2c(c1)NC(=O)/C2=C(\Nc1ccc(N(CCN(C)C)S(C)(=O)=O)cc1)c1ccccc1 . 80

Please respond with reported residual activity (system Dual specificity mitogen-activated protein kinase kinase 1 (Homo sapiens) (UniProt Q02750)) for CCN(C)C(=O)c1ccc2c(c1)NC(=O)/C2=C(\Nc1ccc(CN2CCCCC2)cc1)c1ccccc1 . 47

---

target: Lymphokine-activated killer T-cell-originated protein kinase (Homo sapiens); test: Inhibition of PBK at 1 uM; values are per cent of control
parameter measured: residual activity (%)
State the answer as a number, implicitly in %.

[[record]]
input_smiles = "CN(C)C(=O)c1ccc2c(c1)/C(=C(/Nc1ccc(CN3CCCCC3)cc1)c1ccccc1)C(=O)N2"
observed_measurement = 19

[[record]]
input_smiles = "CCNC(=O)c1ccc2c(c1)NC(=O)/C2=C(\\Nc1ccc(N(CCN(C)C)S(C)(=O)=O)cc1)c1ccccc1"
observed_measurement = 101

[[record]]
input_smiles = "CCNCc1ccc(N/C(=C2\\C(=O)Nc3cc(C(=O)N(C)CC)ccc32)c2ccccc2)cc1"
observed_measurement = 88

[[record]]
input_smiles = "CCNC(=O)c1ccc2c(c1)NC(=O)/C2=C(\\Nc1ccc(CN(C)C)cc1)c1ccccc1"
observed_measurement = 102

[[record]]
input_smiles = "O=C1Nc2ccccc2/C1=C(/Nc1ccc(CN2CCCCC2)cc1)c1ccccc1"
observed_measurement = 5


Field: next compound
For the compound CCN(C)C(=O)c1ccc2c(c1)NC(=O)/C2=C(\Nc1ccc(CN2CCCCC2)cc1)c1ccccc1 , give its measured residual activity value. 150

---

Known residual activity of a selection of compounds
molecular target: Ribosomal protein S6 kinase beta-1 (Homo sapiens) (UniProt P23443); assay: Inhibition of S6K1 at 1 uM; values are per cent of control
Sequence (P23443 whole entry, looked up): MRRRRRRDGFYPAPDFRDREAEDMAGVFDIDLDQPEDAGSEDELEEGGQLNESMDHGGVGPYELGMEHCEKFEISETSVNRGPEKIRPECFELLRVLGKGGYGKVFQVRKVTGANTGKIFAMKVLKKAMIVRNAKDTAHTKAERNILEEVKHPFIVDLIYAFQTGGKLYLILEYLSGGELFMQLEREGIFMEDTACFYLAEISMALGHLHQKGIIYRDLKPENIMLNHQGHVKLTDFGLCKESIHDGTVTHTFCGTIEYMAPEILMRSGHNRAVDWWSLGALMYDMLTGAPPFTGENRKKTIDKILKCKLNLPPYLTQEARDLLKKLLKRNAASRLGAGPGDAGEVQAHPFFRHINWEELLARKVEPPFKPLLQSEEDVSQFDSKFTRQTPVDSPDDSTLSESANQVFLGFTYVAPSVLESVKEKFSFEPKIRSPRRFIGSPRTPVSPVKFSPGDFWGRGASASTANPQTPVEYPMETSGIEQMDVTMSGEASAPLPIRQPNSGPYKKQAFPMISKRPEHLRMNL
State the answer as a number, implicitly in %.

Some solved entries appear below for comparison.
[[record]]
input_smiles = "CCN(C)C(=O)c1ccc2c(c1)NC(=O)/C2=C(\\Nc1ccc(CN2CCCCC2)cc1)c1ccccc1"
observed_measurement = 96

[[record]]
input_smiles = "CN(C)C(=O)c1ccc2c(c1)/C(=C(/Nc1ccc(CN3CCCCC3)cc1)c1ccccc1)C(=O)N2"
observed_measurement = 76

[[record]]
input_smiles = "CCNCc1ccc(N/C(=C2\\C(=O)Nc3cc(C(=O)N(C)CC)ccc32)c2ccccc2)cc1"
observed_measurement = 89

[[record]]
input_smiles = "O=C1Nc2ccccc2/C1=C(/Nc1ccc(CN2CCCCC2)cc1)c1ccccc1"
observed_measurement = 12


For the compound CCNC(=O)c1ccc2c(c1)NC(=O)/C2=C(\Nc1ccc(N(CCN(C)C)S(C)(=O)=O)cc1)c1ccccc1 , give its measured residual activity value. 100

For the compound CCNC(=O)c1ccc2c(c1)NC(=O)/C2=C(\Nc1ccc(CN(C)C)cc1)c1ccccc1 , give its measured residual activity value. 101

---

target: Mitogen-activated protein kinase 14 (Homo sapiens); test: Inhibition of p38alpha at 1 uM; values are per cent of control
Known residual activity of a selection of compounds
State the answer as a number, implicitly in %.

Some solved entries appear below for comparison.
[[record]]
input_smiles = "O=C1Nc2ccccc2/C1=C(/Nc1ccc(CN2CCCCC2)cc1)c1ccccc1"
parameter_measured = "residual activity"
unit_of_measure = "%"
observed_measurement = 96

[[record]]
input_smiles = "CCN(C)C(=O)c1ccc2c(c1)NC(=O)/C2=C(\\Nc1ccc(CN2CCCCC2)cc1)c1ccccc1"
parameter_measured = "residual activity"
unit_of_measure = "%"
observed_measurement = 92

[[record]]
input_smiles = "CCNCc1ccc(N/C(=C2\\C(=O)Nc3cc(C(=O)N(C)CC)ccc32)c2ccccc2)cc1"
parameter_measured = "residual activity"
unit_of_measure = "%"
observed_measurement = 85

[[record]]
input_smiles = "CN(C)C(=O)c1ccc2c(c1)/C(=C(/Nc1ccc(CN3CCCCC3)cc1)c1ccccc1)C(=O)N2"
parameter_measured = "residual activity"
unit_of_measure = "%"
observed_measurement = 91


For the compound CCNC(=O)c1ccc2c(c1)NC(=O)/C2=C(\Nc1ccc(N(CCN(C)C)S(C)(=O)=O)cc1)c1ccccc1 , give its measured residual activity value. 110

For the compound CCNC(=O)c1ccc2c(c1)NC(=O)/C2=C(\Nc1ccc(CN(C)C)cc1)c1ccccc1 , give its measured residual activity value. 121

---

Known residual activity of a selection of compounds
target: Mitogen-activated protein kinase 1 (Homo sapiens) (UniProt P28482); assay: Inhibition of ERK2 at 1 uM; values are per cent of control
Sequence (P28482 whole entry): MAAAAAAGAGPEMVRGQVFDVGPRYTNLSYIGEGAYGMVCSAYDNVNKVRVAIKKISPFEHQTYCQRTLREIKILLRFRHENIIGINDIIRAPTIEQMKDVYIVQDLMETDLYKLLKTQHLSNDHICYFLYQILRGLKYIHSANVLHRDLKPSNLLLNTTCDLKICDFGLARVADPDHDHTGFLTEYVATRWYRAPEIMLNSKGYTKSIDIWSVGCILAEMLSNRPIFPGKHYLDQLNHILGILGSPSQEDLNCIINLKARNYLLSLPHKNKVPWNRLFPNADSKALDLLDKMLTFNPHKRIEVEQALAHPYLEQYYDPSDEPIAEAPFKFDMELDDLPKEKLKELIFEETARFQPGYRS
State the answer as a number, implicitly in %.

Some solved entries appear below for comparison.
[[record]]
input_smiles = "CCNC(=O)c1ccc2c(c1)NC(=O)/C2=C(\\Nc1ccc(N(CCN(C)C)S(C)(=O)=O)cc1)c1ccccc1"
parameter_measured = "residual activity"
unit_of_measure = "%"
observed_measurement = 104

[[record]]
input_smiles = "CN(C)C(=O)c1ccc2c(c1)/C(=C(/Nc1ccc(CN3CCCCC3)cc1)c1ccccc1)C(=O)N2"
parameter_measured = "residual activity"
unit_of_measure = "%"
observed_measurement = 95

[[record]]
input_smiles = "CCN(C)C(=O)c1ccc2c(c1)NC(=O)/C2=C(\\Nc1ccc(CN2CCCCC2)cc1)c1ccccc1"
parameter_measured = "residual activity"
unit_of_measure = "%"
observed_measurement = 96

[[record]]
input_smiles = "CCNCc1ccc(N/C(=C2\\C(=O)Nc3cc(C(=O)N(C)CC)ccc32)c2ccccc2)cc1"
parameter_measured = "residual activity"
unit_of_measure = "%"
observed_measurement = 87

[[record]]
input_smiles = "O=C1Nc2ccccc2/C1=C(/Nc1ccc(CN2CCCCC2)cc1)c1ccccc1"
parameter_measured = "residual activity"
unit_of_measure = "%"
observed_measurement = 77


Field: next compound
Please respond with reported residual activity (system Mitogen-activated protein kinase 1 (Homo sapiens) (UniProt P28482)) for CCNC(=O)c1ccc2c(c1)NC(=O)/C2=C(\Nc1ccc(CN(C)C)cc1)c1ccccc1 . 98

---

target: Serine/threonine-protein kinase Nek6 (Homo sapiens) (UniProt Q9HC98); test: Inhibition of NEK6 at 1 uM; values are per cent of control
Sequence (Q9HC98 whole entry): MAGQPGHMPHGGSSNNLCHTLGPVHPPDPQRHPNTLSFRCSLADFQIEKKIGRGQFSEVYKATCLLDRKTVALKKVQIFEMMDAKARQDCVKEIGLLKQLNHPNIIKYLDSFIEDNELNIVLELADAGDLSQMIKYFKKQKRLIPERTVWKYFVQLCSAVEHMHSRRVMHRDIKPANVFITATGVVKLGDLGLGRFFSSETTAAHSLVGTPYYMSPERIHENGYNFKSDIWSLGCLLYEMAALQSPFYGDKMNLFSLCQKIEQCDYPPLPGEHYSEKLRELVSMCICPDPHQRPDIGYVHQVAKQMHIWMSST
parameter measured: residual activity (%)
State the answer as a number, implicitly in %.

Some solved entries appear below for comparison.
[[record]]
input_smiles = "CCNCc1ccc(N/C(=C2\\C(=O)Nc3cc(C(=O)N(C)CC)ccc32)c2ccccc2)cc1"
observed_measurement = 92

[[record]]
input_smiles = "CCNC(=O)c1ccc2c(c1)NC(=O)/C2=C(\\Nc1ccc(CN(C)C)cc1)c1ccccc1"
observed_measurement = 123

[[record]]
input_smiles = "CCNC(=O)c1ccc2c(c1)NC(=O)/C2=C(\\Nc1ccc(N(CCN(C)C)S(C)(=O)=O)cc1)c1ccccc1"
observed_measurement = 118

[[record]]
input_smiles = "CN(C)C(=O)c1ccc2c(c1)/C(=C(/Nc1ccc(CN3CCCCC3)cc1)c1ccccc1)C(=O)N2"
observed_measurement = 87

[[record]]
input_smiles = "CCN(C)C(=O)c1ccc2c(c1)NC(=O)/C2=C(\\Nc1ccc(CN2CCCCC2)cc1)c1ccccc1"
observed_measurement = 88


Field: next compound
Please respond with reported residual activity (system Serine/threonine-protein kinase Nek6 (Homo sapiens) (UniProt Q9HC98)) for O=C1Nc2ccccc2/C1=C(/Nc1ccc(CN2CCCCC2)cc1)c1ccccc1 . 86

---

Target: Serine/threonine-protein kinase Chk1 (Homo sapiens)
Sequence (whole entry): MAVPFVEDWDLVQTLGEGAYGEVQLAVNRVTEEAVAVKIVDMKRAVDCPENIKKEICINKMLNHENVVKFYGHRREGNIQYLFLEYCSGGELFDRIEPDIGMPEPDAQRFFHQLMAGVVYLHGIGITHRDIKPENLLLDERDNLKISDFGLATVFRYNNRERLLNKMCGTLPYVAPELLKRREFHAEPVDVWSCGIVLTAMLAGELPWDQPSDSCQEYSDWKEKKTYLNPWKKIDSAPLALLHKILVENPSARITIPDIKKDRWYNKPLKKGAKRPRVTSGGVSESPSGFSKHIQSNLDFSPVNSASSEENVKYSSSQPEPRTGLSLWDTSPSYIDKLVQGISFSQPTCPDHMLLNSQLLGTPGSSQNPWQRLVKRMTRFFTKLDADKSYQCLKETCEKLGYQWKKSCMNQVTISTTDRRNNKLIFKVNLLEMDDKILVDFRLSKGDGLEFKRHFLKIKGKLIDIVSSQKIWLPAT
Test: Inhibition of CHK1 at 1 uM; values are per cent of control
Rule: residual activity under 80% gives -1, otherwise 1.

[[record]]
input_smiles = "CCN(C)C(=O)c1ccc2c(c1)NC(=O)/C2=C(\\Nc1ccc(CN2CCCCC2)cc1)c1ccccc1"
label_class = -1

[[record]]
input_smiles = "CCNC(=O)c1ccc2c(c1)NC(=O)/C2=C(\\Nc1ccc(N(CCN(C)C)S(C)(=O)=O)cc1)c1ccccc1"
label_class = -1


Can CCNCc1ccc(N/C(=C2\C(=O)Nc3cc(C(=O)N(C)CC)ccc32)c2ccccc2)cc1 be said to have residual activity at or above 80%? 1

Can O=C1Nc2ccccc2/C1=C(/Nc1ccc(CN2CCCCC2)cc1)c1ccccc1 be said to have residual activity at or above 80%? -1

Can CCNC(=O)c1ccc2c(c1)NC(=O)/C2=C(\Nc1ccc(CN(C)C)cc1)c1ccccc1 be said to have residual activity at or above 80%? 1

Can CN(C)C(=O)c1ccc2c(c1)/C(=C(/Nc1ccc(CN3CCCCC3)cc1)c1ccccc1)C(=O)N2 be said to have residual activity at or above 80%? -1
